Conditions: mouse, microsomes, 1 µM
Description: DNDI: in vitro intrinsic clearance in mouse liver microsomes at a concentration of 1uM
Quantity: CLint in vitro (µL/min/mg)

// solved cases for CLint in vitro follow
Molecule	Output Unit	Reading
CCCCc1ccc(-c2nc(CNCc3c(OC)cccc3OC)co2)cc1	µL/min/mg	65
CCc1ccc(Oc2ncccc2/C(=N\O)NC2CCCC[C@H]2N)cc1 (stereo partly specified)	µL/min/mg	2
CCCCc1ccc(-c2nc(CNC3CC(C)CC(C)(C)C3)co2)cc1 (stereo unspecified)	µL/min/mg	3
O/N=C(/Nc1ccc(F)cc1)c1ccccc1-c1ccccc1	µL/min/mg	59
CC(C)Oc1ccc(-c2nc(CNC3CCCCCC3)co2)cc1	µL/min/mg	12
CCCCCOc1ccc(-c2nc(CN[C@@H]3C[C@@H]4C[C@H]([C@H]3C)C4(C)C)co2)cc1	µL/min/mg	60
CCCCCC(C)NCc1coc(Cc2ccc(OC)cc2)n1 (stereo unspecified)	µL/min/mg	55
Cc1ccc(/C(=N/O)NC2CCCCC2)c(Oc2c(F)cccc2F)n1	µL/min/mg	255

[I] CCCCCC(C)NCc1coc(-c2ccc(OCC(=O)c3ccccc3)cc2)n1 (stereo unspecified)
[II] CCCCCOc1ccc(-c2nc(CNC3CC(C)CC(C)(C)C3)co2)cc1 (stereo unspecified)
Challenge: Hi! Which is lower in terms of CLint in vitro, the first one I or the second one II ? Please reply using the label of the selected record.
Response given: II

[1] CCCCCC(C)NCc1coc(-c2ccc(OCc3ccc(Cl)cc3)cc2)n1 (stereo unspecified)
[2] O/N=C(\NC1CCCCC1)c1ccccc1
[3] CCCCCC(C)NCc1coc(-c2ccc(OCCc3ccccc3)cc2)n1 (stereo unspecified)
[4] O/N=C(/NC1CCCCC1)c1cccnc1Oc1ccccc1
Challenge: Could you please sort these 4 entries by CLint in vitro from high to low? To answer, write out the labels according to the requested order.
Response given: 4, 2, 3, 1

[P] CCc1ccccc1/C(=N\O)NC1CCCCC1
[Q] CCCCCC(C)NCc1coc(-c2ccc(Oc3ccccc3)cc2)n1 (stereo unspecified)
Challenge: Field: entry with larger CLint in vitro (options P / Q ). Respond using the label that marks the chosen record.
Response given: P

[A] CCCCCC(C)NCc1coc(-c2ccc(Oc3ccc(OC)cc3)cc2)n1 (stereo unspecified)
[B] CCOc1ccc(-c2nc(CNC3CC(C)CC(C)(C)C3)co2)cc1 (stereo unspecified)
Challenge: Quick check, higher CLint in vitro between A and B ? When you have decided, please share the label of that item.
Response given: B
(B: 50 µL/min/mg, A: 25 µL/min/mg)

----------
Attribute: IC50 at 72 h
Assay Name: DNDI: Cytotoxicity against L929 mouse fibroblasts, 72 hour.
Assay type: toxicity, cell-based
Conditions: mouse, L929 mouse fibroblasts

Recorded results for 3 compounds are shown here.
Compound	IC50 at 72 h
CC(C)(C)c1ccc(-c2nc(CNC[C@@H]3CC[C@H]4C[C@@H]3C4(C)C)co2)cc1	> 50 µg/mL
CC1CC(NCc2coc(-c3ccc(Cl)cc3)n2)CC(C)(C)C1 (configuration not stated)	< 3.13 µg/mL
CCCCOc1ccc(-c2nc(CN[C@@H]3C[C@@H]4C[C@H]([C@H]3C)C4(C)C)co2)cc1	< 3.13 µg/mL

Recorded IC50 at 72 h (compound O/N=C(\NC1CCCC1)c1ccccc1-c1ccccc1 ): > 10 µg/mL

Measured IC50 at 72 h of CCCCc1ccc(-c2nc(CNCc3cccnc3)co2)cc1 : > 10 µg/mL

----------
Conditions: mouse, microsomes, 1 µM
Quantity: CLint in vitro (µL/min/mg)

Sample records with CLint in vitro:
Molecule	CLint in vitro / µL/min/mg
CCCCOc1ccc(-c2nc(CNC[C@@H]3CC[C@H]4C[C@@H]3C4(C)C)co2)cc1	95
CCc1ccc(Oc2ncccc2/C(=N\O)NC2CCCCC2O)cc1 (stereo unspecified)	51

[I] CCCCCC(C)NCc1coc(-c2ccc(OCCCC)cc2)n1 (stereo unspecified)
[II] O/N=C(\NC1CCCCC1)c1cc(F)cc(F)c1
Challenge: Of I and II , whose reported CLint in vitro is the larger number? Could you answer with the label of the item you picked?
Response given: II
(II: 35 µL/min/mg, I: 10 µL/min/mg)

[a] CCCCCC(C)NCc1coc(-c2ccc(OC3CCC3)cc2)n1 (stereo unspecified)
[b] CCCCc1ccc(-c2nc(CNCc3ccc(OC)cc3)co2)cc1
[c] CCC(C)C(NCc1ccc(C)cc1)c1nc(Cc2ccccc2)c(N2CCOCC2)o1 (stereo unspecified)
Challenge: Ordering criterion: CLint in vitro; begin with the maximum. Returns: the labels arranged in the requested order.
Response given: c, b, a
(c: 378 µL/min/mg, b: 16 µL/min/mg, a: 9 µL/min/mg)

----------
Below: a set of entries, each annotated with reported IC50 at 24 h.
Assay Name: DNDI: Cytotoxicity against L929 mouse fibroblasts, CYTO-SP, 24 hour
Assay type: toxicity, cell-based
Conditions: mouse, L929 mouse fibroblasts

Example entries and their recorded answers appear below.
Compound	Quantity	Reading
CCC(CC)N/C(=N\O)c1cccnc1Oc1ccc(OC)cc1	IC50 at 24 h	> 50 µg/mL
CC(C)(C)c1ccc(-c2nc(CNC3[C@H]4C[C@@H]5C[C@@H](C[C@H]3C5)C4)co2)cc1 (stereo partly drawn)	IC50 at 24 h	> 50 µg/mL

Note: attention shifts to another entry.
Recorded result, O/N=C(\NCC1CC1)c1ccccc1-c1ccccc1 , IC50 at 24 h: > 50 µg/mL

----------
Each item that follows carries a reported IC50 at 72 h.
Assay Name: DNDI: Cytotoxicity against L929 mouse fibroblasts, 72 hour.
Type: toxicity, cell-based
Conditions: mouse, L929 mouse fibroblasts

As a guide, the following entries are already answered.
CC(C)COc1ccc(-c2nc(CNCCCN(C)C)co2)cc1 > 10 µg/mL
CCCOc1ccc(-c2nc(CNC3CCCCCC3)co2)cc1 < 3.13 µg/mL
CCCCc1ccc(-c2nc(CNC[C@@H]3CC[C@H]4C[C@@H]3C4(C)C)co2)cc1 > 10 µg/mL
Fc1ccc(-c2cc3nc(-c4ccccc4)cc(NCCN4CCOCC4)n3n2)cc1 > 10 µg/mL

Let's switch to this compound now.
IC50 at 72 h reported for this compound CN(C)CCCNCc1coc(-c2ccc(OC3CCCC3)cc2)n1 : > 10 µg/mL

----------
Assay Name: DNDI: Cytotoxicity against L929 mouse fibroblasts, CYTO-SP, 24 hour
Assay type: toxicity, cell-based
Conditions: mouse, L929 mouse fibroblasts
Quantity: IC50 at 24 h

Answered cases to consult:
Compound	Quantity	Reading
CN(/C(=N\O)c1cccnc1OCc1ccccc1F)c1ccccc1	IC50 at 24 h	> 50 µg/mL
CCOc1ccc(-c2nc(CNC3CCCCCC3)co2)cc1	IC50 at 24 h	25.1 µg/mL
Cc1cc(N)nn1Cc1coc(-c2ccc(OC(F)(F)F)cc2)n1	IC50 at 24 h	> 50 µg/mL
c1ccc(-c2ccc(-c3nc(CNC4[C@H]5C[C@@H]6C[C@@H](C[C@H]4C6)C5)co3)cc2)cc1 (stereo partly specified)	IC50 at 24 h	> 50 µg/mL
CC(C)COc1ncccc1/C(=N/O)NCC(C)(C)C	IC50 at 24 h	> 50 µg/mL

IC50 at 24 h measured on O/N=C(\NC1CCCC1)c1ccccc1-c1ccccc1 = > 50 µg/mL

// CCOc1ccc(-c2nc(CNC3C[C@@H]4C[C@H]([C@H]3C)C4(C)C)co2)cc1 (stereo partly specified) : IC50 at 24 h value = > 50 µg/mL

----------
Assay Name: DNDI: Solubility in phosphate buffered saline at pH7.4 measured by optical density (turbidimetry) at room temperature (OD-RT)
Format: physicochemical
Conditions: pH 7.4
Quantity: solubility kinetic (µM)

Past entries and their recorded results:
CCc1ccccc1Oc1ncccc1/C(=N\O)NC1CCCCC1 6.3
O/N=C(/NC1CCCCC1)c1cccnc1Oc1ccccc1Cl 4

[P] CCOc1ccc(-c2nc(CNC[C@@H]3CC[C@H]4C[C@@H]3C4(C)C)co2)cc1
[Q] O/N=C(\NC1CCCCC1)c1ccccc1-c1ccccc1
[R] O/N=C(/NC1CCCCC1)c1cccnc1Oc1ccccc1F
Challenge: Sort these compounds on solubility kinetic so the largest reading comes first. List the labels, following the order given in the request.
Response given: R, Q, P

----------
Assay Name: in vitro
Conditions: mouse, liver microsomes, t (1 / 2)
Description: DNDI: half life in mouse liver microsomes at a concentration of 1uM
Quantity: half-life at 1 µM (min)

The cases that follow already have their half-life at 1 µM on record.
Compound	Output Unit	Reading
O/N=C(\NC1CCCCC1)c1ccc(-c2ccccc2)cc1	min	3
COc1ccc(CNC(CCc2ccccc2)c2nc(Cc3ccccc3)c(N3CCCCC3)o2)cc1OC (stereo not drawn)	min	2
COc1ccc(N/C(=N/O)c2ccc(OC)cc2)cc1	min	2
CCCCc1ccc(-c2nc(CNCc3ccc(OC)cc3)co2)cc1	min	53
CCCCCOc1ccc(-c2nc(CNCCC3CCCN3C)co2)cc1 (stereo not drawn)	min	76

[P] Cc1cccc(C)c1/C(=N/O)NC1CCCCC1
[Q] CCc1ccccc1/C(=N\O)NC1CCCCC1
Challenge: Between P and Q , which one shows the smaller half-life at 1 µM number? In your reply, give the label of the chosen option.
Response given: Q
(Q: 7 min, P: 11 min)

[a] CCCOc1ccc(-c2nc(CN[C@@H]3C[C@@H]4C[C@H]([C@H]3C)C4(C)C)co2)cc1
[b] CCOc1ccc(-c2nc(CNC3C[C@@H]4C[C@H]([C@H]3C)C4(C)C)co2)cc1 (stereo partly drawn)
[c] CC(C)Oc1ccc(-c2nc(CNC[C@@H]3CC[C@H]4C[C@@H]3C4(C)C)co2)cc1
[d] O/N=C(\NC1CCCCC1)c1ccccc1Cc1ccccc1
Challenge: Put the compounds in ascending order of half-life at 1 µM. Put the labels in the order asked and list them.
Response given: d, b, c, a

[P] CCCCCC(C)NCc1coc(-c2ccc(OCCOCC)cc2)n1 (stereo not drawn)
[Q] O/N=C(/NC1CCCCC1)c1cccc2ccccc12
Challenge: // which entry reports the smaller half-life at 1 µM, P or Q ? Write down the label attached to your selection.
Response given: Q
(Q: 5 min, P: 20 min)
